For Human β2 adrenoceptor (Homo sapiens, UniProt P07550), measured IC50 is reported for the entries below.

1. O=C(NCc1ccc(-c2cccc([C@](O)(C(=O)OCC3CCN(Cc4ccccc4)CC3)c3ccccc3)c2)s1)c1ccc(CNC[C@H](O)c2ccc(O)c3[nH]c(=O)ccc23)c(C(F)(F)F)c1 [Compound 1F] = 0.3 to 3 nM
2. O=C(NCC(=O)N1CC=C(c2cccc([C@](O)(C(=O)OCC3CCN(Cc4ccccc4)CC3)c3ccccc3)c2)CC1)c1ccc(CNC[C@H](O)c2ccc(O)c3[nH]c(=O)ccc23)cc1 [Compound 8D] = < 0.3 nM

For each listed entry, give its IC50.
1. O=C(NCc1cc(-c2ccc([C@](O)(C(=O)OCC3CCN(Cc4ccccc4)CC3)c3ccccc3)cc2)cs1)c1ccc(CNC[C@H](O)c2ccc(O)c3[nH]c(=O)ccc23)cc1 [Compound 15B]
2. O=C(c1ccc(CNC[C@H](O)c2ccc(O)c3[nH]c(=O)ccc23)cc1)N1CCC=C(c2cccc([C@](O)(C(=O)OCC3CCN(Cc4ccccc4)CC3)c3ccccc3)c2)C1 [Compound 3I]
3. COc1cc(C(=O)NCc2ccc(-c3cccc([C@](O)(C(=O)OCC4CCN(Cc5ccccc5)CC4)c4ccccc4)c3)s2)c(F)cc1CNC[C@H](O)c1ccc(O)c2[nH]c(=O)ccc12 [Compound 1E]
4. O=C(c1ccc(CNC[C@H](O)c2ccc(O)c3[nH]c(=O)ccc23)cc1)N1CCC(c2cccc([C@](O)(C(=O)OCC3CCN(Cc4ccccc4)CC3)c3ccccc3)c2)CC1 [Compound 7]

[A]
1: 0.3 to 3 nM; 2: 0.3 to 3 nM; 3: < 0.3 nM; 4: 0.3 to 3 nM

Hi there! I need IC50 for each item below, if you can.
1. COc1cc(CNC[C@H](O)c2ccc(O)c3[nH]c(=O)ccc23)cc(F)c1C(=O)NCc1ccc(-c2cccc([C@](O)(C(=O)OCC3CCN(Cc4ccccc4)CC3)c3ccccc3)c2)s1 [Compound 1X]
2. O=C(NCc1ccc(-c2cccc([C@](O)(C(=O)OCC3CCN(Cc4ccccc4)CC3)c3ccccc3)c2)s1)c1ccc(CNC[C@H](O)c2ccc(O)c3[nH]c(=O)ccc23)cc1Cl [Compound 1]
3. O=C(NCc1ccc(-c2cccc([C@](O)(C(=O)OCC3CCN(Cc4ccccc4)CC3)c3ccccc3)c2)s1)c1ccc(CNC[C@H](O)c2ccc(O)c3[nH]c(=O)ccc23)s1 [Compound 1T]
4. COc1cc(C(=O)N2CC=C(c3cccc([C@](O)(C(=O)OCC4CCN(Cc5ccccc5)CC4)c4ccccc4)c3)CC2)ccc1CNC[C@H](O)c1ccc(O)c2[nH]c(=O)ccc12 [Compound 3C]
5. C[C@@H](NC(=O)c1ccc(CNC[C@H](O)c2ccc(O)c3[nH]c(=O)ccc23)cc1)C(=O)N1CC=C(c2cccc([C@](O)(C(=O)OCC3CCN(Cc4ccccc4)CC3)c3ccccc3)c2)CC1 [Compound 8B]
6. O=C(c1ccc(CNC[C@H](O)c2ccc(O)c3[nH]c(=O)ccc23)cc1)N1CCc2sc(-c3cccc([C@](O)(C(=O)OCC4CCN(Cc5ccccc5)CC4)c4ccccc4)c3)cc2C1 [Compound 5C]

[A]
["< 0.3 nM", "< 0.3 nM", "0.3 to 3 nM", "< 0.3 nM", "0.3 to 3 nM", "< 0.3 nM"]

All figures here come from patent US10196386B2.
